# EXPERIMENTAL SYSTEM: Troponin I, cardiac muscle (Homo sapiens) + Troponin T, cardiac muscle (Homo sapiens) + Troponin C, slow skeletal and cardiac muscles (Homo sapiens) (UniProt P19429+P45379+P63316)
# EXPERIMENT DESCRIPTION: cardiac RTF calcium sensitivity activators, confirmation, biochemical, IANBD-TnC fluorescence, triplicate (AID 504383);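 further: 0% = DMSO at 0.472 mM calcium and 100% = DMSO at 2.9 mM calcium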
# MEASUREMENT CONDITIONS: IANBD-labeled cardiac RTF, Ca2+ sensitivity fluorescence; at 7.2 µM; scaled from EC20 to saturating calcium; tested at EC20 calcium, 0.472 mM
Hit rate of the full screen: of about 2,500 compounds, about 1,200 (48%) were called active.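 How the source made its calls: active means mean activation above the low control average plus 3 SD, as set in the primary screen (cut at about 12% in these data); inactive means the rest.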 So high a share suggests a set chosen from earlier hits. The list shows a part of the results.
Select the correct class. Options are T for active, F for inactive and nothing else.

Here are 5 compounds together with their reported answers.
1. CC(C)CSC1=NSC2=NC(=O)/C(=C\c3coc4ccccc4c3=O)C(=N)N12 : T
2. O=C(O)C1CCC(CNCc2ccccc2Cl)CC1 (stereo unspecified) : F
3. O=C1/C(=C\c2c(NCCOCCO)nc3ccccn3c2=O)SC(=S)N1Cc1ccco1 : T
4. C=CCNC(=S)NNC(=O)c1ccc(OCC(C)C)cc1 : F
5. CCCN(CCC)c1nc2c(C)cccn2c(=O)c1/C=C1/SC(=S)N(Cc2ccco2)C1=O : F

Shift focus to the following entry.
# lookup: test call for C[C@H](CO)N1C[C@H](C)[C@@H](CN(C)Cc2ccc(Oc3ccccc3)cc2)Oc2c(NC(=O)C3CC3)cccc2C1=O
T

* * *

# EXPERIMENTAL SYSTEM: Troponin I, cardiac muscle (Homo sapiens) + Troponin T, cardiac muscle (Homo sapiens) + Troponin C, slow skeletal and cardiac muscles (Homo sapiens) (UniProt P19429+P45379+P63316)
# EXPERIMENT DESCRIPTION: cardiac RTF calcium sensitivity activators, confirmation, biochemical, IANBD-TnC fluorescence, triplicate (AID 504383);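 further: 0% = DMSO at 0.472 mM calcium and 100% = DMSO at 2.9 mM calcium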
# MEASUREMENT CONDITIONS: IANBD-labeled cardiac RTF, Ca2+ sensitivity fluorescence; at 7.2 µM; stronger effect = higher value; scaled from EC20 to saturating calcium; tested at EC20 calcium, 0.472 mM
Among all 2,500 compounds or so, about 1,200 (48%) were called active. The set was probably picked from earlier hits. The list shows a part of the results.
PROPERTY: activation (%)
Form entry: value (%) — number only.

1. O=C(O)C1CCCCC1C(=O)Nc1ccc(-c2ccccc2)cc1 (configuration not stated) : 8.12
2. COc1cc(C2C=C(c3cccs3)Nc3ncnn32)cc(OC)c1OC (configuration not stated) : 12.2
3. O=C(Nc1ccc(Br)cc1)C(c1ccccc1)c1ccccc1 : 3.94
4. COc1cccc(C2C=C(c3ccc(Br)s3)Nc3ncnn32)c1OC (configuration not stated) : 5.02
5. COc1ccc2nc3ccccc3nc2c1NC(=O)c1ccc(Cl)cc1Cl : 6.58

// moving on: another record for activation
What value of activation has been reported for the following molecule? COc1cc(SC)ccc1C(=O)Nc1nc2ccccc2[nH]1
9.59

* * *

# EXPERIMENTAL SYSTEM: Troponin I, cardiac muscle (Homo sapiens) + Troponin T, cardiac muscle (Homo sapiens) + Troponin C, slow skeletal and cardiac muscles (Homo sapiens) (UniProt P19429+P45379+P63316)
# EXPERIMENT DESCRIPTION: cardiac RTF calcium sensitivity activators, confirmation, biochemical, IANBD-TnC fluorescence, triplicate (AID 504383);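 further: 0% = DMSO at 0.472 mM calcium and 100% = DMSO at 2.9 mM calcium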
# MEASUREMENT CONDITIONS: IANBD-labeled cardiac RTF, Ca2+ sensitivity fluorescence; at 7.2 µM; stronger effect = higher value; scaled from EC20 to saturating calcium; tested at EC20 calcium, 0.472 mM
In all, about 2,500 compounds went through this assay and about 1,200 (48%) were called active. So high a share suggests a set chosen from earlier hits. Some of the results follow.
Lab note: anything with activation at or over 10% counts as Criterion met; the rest go in Criterion not met.

Here are 2 compounds together with their reported answers.
1) Cc1ccc(O)c(C(=O)c2cc(C#N)c(=O)n(-c3nccs3)c2)c1 : Criterion not met
2) COc1ccc(N2C(N)=NC(N)=NC2(C)C)cc1 : Criterion not met

Is reported activation greater than or equal to 10% here: Cc1cc(C)n2nc(SCC(=O)N(C)Cc3ccccc3)nc2n1
Criterion not met

Now consider Brc1ccc(-c2cnnc(N3CCCC3)n2)cc1 .
Criterion met

Now consider COc1ccc(OC)c(NC(=O)NCCc2cccc(Cl)c2)c1 .
Criterion not met

Now consider CCOC(=O)C(C(=O)Nc1cccc(C)n1)C1CCCCC1 (centres undefined) .
Criterion not met

Now consider COc1ccccc1-c1nnc(SCC(=O)Nc2ccc3[nH]c(=O)[nH]c3c2)n1N .
Criterion not met
